We begin with a simple list: items and their reported melting point.
Numbers only; they are read as °C.

Sample records with melting point:
>  <smi>
CCOCCCNC(=O)C(C)(C(C)C)C(C)C

>  <melting point [°C]>
30

$$$$
>  <smi>
CCCCOCCCNC(=O)C(C)(C(C)C)C(C)C

>  <melting point [°C]>
40

$$$$
>  <smi>
CC(C)OCCCNC(=O)C(C)(C(C)C)C(C)C

>  <melting point [°C]>
32

$$$$

Consider the record given below.
[in] Would you kindly share the measured melting point for COCCCNC(=O)C(C)(C(C)C)C(C)C ?
[out] 10
